System: Hepatitis B virus
Assay: Antiviral activity against HBV infected in human HepG2(2.2.15) cells assessed as decrease in extracellular HBV DNA levels after 12 days by dot blot analysis
Type: functional, cell-based
Conditions: HepG2 2.2.15, 288 h
ASSAY_ENDPOINT: EC50 (nM)
Please give a number only; it is taken to be in nM.

Input "Nc1ncnc2c1ncn2C[C@@H](CF)OCP(=O)(O)O" . Output EC50: 1200

====

Assay: Cytotoxicity against human PHA-stimulated PBMC assessed as cell viability by tetrazolium dye assay
Format: cell-based
ASSAY_ENDPOINT: log10 CC50 (log10 of the value in µM)
log10 CC50, µM

Reference set (4 entries):
Nc1nc(O)c2ncn(C[C@H](CF)OCP(=O)(O)O)c2n1
1.97
CC(C)OC(=O)[C@H](C)N[P@](=O)(CO[C@H](C)Cn1cnc2c(N)ncnc21)Oc1ccccc1 [TENOFOVIR ALAFENAMIDE]
0.12
Nc1ncnc2c1ncn2C[C@H](CF)OCP(=O)(O)O
1.97
CCCCCOC(=O)C[C@H](NP(=O)(CO[C@@H](CF)Cn1cnc2c(N)ncnc21)Oc1ccccc1)C(=O)OCCCCC (some centres not stated)
1.56

Briefly, log10 CC50 measured for "Nc1nc(O)c2ncn(C[C@@H](CF)OCP(=O)(O)O)c2n1" : 1.56

In plain terms, CC(C)OC(=O)OCOP(=O)(CO[C@H](C)Cn1cnc2c(N)ncnc21)OCOC(=O)OC(C)C.O=C(O)/C=C/C(=O)O [TENOFOVIR DISOPROXIL FUMARATE] has a documented log10 CC50 of 1.16
